target: 11β-HSD1 (human liver microsomes) (Homo sapiens, UniProt P28845); construct: detecting cortisol generated from cortisterone by human liver microsomes; from tissue; host or cells: human liver microsomes; assay: In vitro inhibition of 11β-HSD1, HTRF detection of cortisol generated by human liver microsomes; type: biochemical; conditions: 100 nM inhibitor, 100% indicates no inhibition, zero or below zero indicates complete inhibition, 1 hour at 37° C., read-out: Average % control inhibition at 100 nM
Sequence (P28845 whole entry): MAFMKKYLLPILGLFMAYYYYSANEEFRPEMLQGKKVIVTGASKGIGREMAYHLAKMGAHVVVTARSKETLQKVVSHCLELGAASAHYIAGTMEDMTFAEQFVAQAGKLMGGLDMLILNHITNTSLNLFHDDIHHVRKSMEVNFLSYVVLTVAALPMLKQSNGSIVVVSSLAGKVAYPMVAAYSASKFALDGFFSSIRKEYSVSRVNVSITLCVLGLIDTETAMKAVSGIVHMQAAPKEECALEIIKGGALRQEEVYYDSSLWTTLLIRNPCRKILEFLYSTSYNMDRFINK
Recorded Endpoint: remaining activity at 0.1 µM
Param answer (str): number followed by unit.

Record excerpt, results attached:
> print(dat)
                                   molecule                              study.system  endpoint.result
1  CNC(=O)N1CCC(c2ccc([C@H](C)N3CC[C@](CC(C)(C)O)(c4ccccc4)OC3=O)cc2)CC1 [Example 35]  11β-HSD1 (human liver microsomes) (Homo sapiens, UniProt P28845)               1%
2  C[C@@H](c1ccc(C2CCN(C(=O)[C@H]3CCCO3)CC2)cc1)N1CC[C@](CC(C)(C)O)(c2ccccc2)OC1=O [Example 24]  11β-HSD1 (human liver microsomes) (Homo sapiens, UniProt P28845)              53%
3  CCNC(=O)c1ccc(-c2ccc([C@H](C)N3CC[C@](CC(C)(C)O)(c4ccccc4)OC3=O)cc2)cn1 [Example 15]  11β-HSD1 (human liver microsomes) (Homo sapiens, UniProt P28845)             -34%

# context switch: different molecule, same remaining activity at 0.1 µM
Request: Give remaining activity at 0.1 µM (11β-HSD1 (human liver microsomes) (Homo sapiens, UniProt P28845)) of the following molecule: C[C@@H](c1ccc(C2CCN(C(=O)N(C)C)CC2)cc1)N1CC[C@](CC(C)(C)O)(c2ccccc2)OC1=O [Example 36]
Result: 31%

* * *

molecular target: human 11β-HSD1 (microsomes isolated from CHO cells overexpressing human 11β-HSD1) (Homo sapiens); test: Inhibition of a microsomal preparation of 11β-HSD1, scintillation proximity assay; conditions: microsomes from CHO cells overexpressing human 11β-HSD1; [3H]cortisone, SPA, 90 minutes at rt
Property: IC50; scope: individual compounds
The figure you give is taken to be in nM; do not add the unit.

Request: Form field: reported IC50 of CC(C)C1(CC(C)(C)O)CCN([C@@H](C)c2ccc(-c3ccc4c(c3)ncn4C)cc2)C(=O)O1 (some centres unmarked) [Example 38]
Result: 7.7

Request: Entry Cc1nc2cc(-c3ccc([C@H](C)N4CCC(CC(C)(C)O)(C(C)C)OC4=O)cc3)ccc2n1C (single isomer, unassigned) [Example 37] please
Result: 6.9

* * *

target: 11β-HSD1 (human liver microsomes) (Homo sapiens, UniProt P28845); construct: detecting cortisol generated from cortisterone by human liver microsomes; from tissue; host or cells: human liver microsomes; assay: In vitro inhibition of 11β-HSD1, HTRF detection of cortisol generated by human liver microsomes; type: biochemical; details: 100 nM inhibitor, 100% indicates no inhibition, zero or below zero indicates complete inhibition, 1 hour at 37° C., read-out: Average % control inhibition at 100 nM
Recorded Endpoint: remaining activity at 0.1 µM (%)
The figure you give is taken to be in %; do not add the unit.

Record excerpt, results attached:
> print(dat)
                                 cpd.smiles             recorded.endpoint  endpoint.result
1  C[C@@H](c1ccc(C2CCNCC2)cc1)N1CC[C@](CC(C)(C)O)(c2ccccc2)OC1=O  remaining activity at 0.1 µM               93
2  C[C@@H](c1ccc(C2CCN(C)CC2)cc1)N1CC[C@](CC(C)(C)O)(c2ccccc2)OC1=O  remaining activity at 0.1 µM               97
3  C[C@@H](c1ccc(-c2ccc(C(=O)N(C)C)nc2)cc1)N1CC[C@](CC(C)(C)O)(c2ccccc2)OC1=O  remaining activity at 0.1 µM              -10
4  C[C@@H](c1ccc(C2CCN(S(C)(=O)=O)CC2)cc1)N1CC[C@](CC(C)(C)O)(c2ccccc2)OC1=O  remaining activity at 0.1 µM               17
5  C[C@@H](c1ccc(C2CCN(C(=O)[C@H]3CCCN3C)CC2)cc1)N1CC[C@](CC(C)(C)O)(c2ccccc2)OC1=O  remaining activity at 0.1 µM               86

Request: Form field: reported remaining activity at 0.1 µM of C[C@@H](c1ccc(C2CCN(C(=O)[C@@H]3CCCN3C)CC2)cc1)N1CC[C@](CC(C)(C)O)(c2ccccc2)OC1=O
Result: 80

Request: Entry CNC(=O)c1ccc(-c2ccc([C@H](C)N3CC[C@](CC(C)(C)O)(c4ccccc4)OC3=O)cc2)cn1 please
Result: -24

Request: Entry C[C@@H](c1ccc(C2CCN(C(=O)C(C)(C)O)CC2)cc1)N1CC[C@](CC(C)(C)O)(c2ccccc2)OC1=O please
Result: 71

Request: Entry C[C@@H](c1ccc(C2CCN(C(=O)[C@@H]3CCCO3)CC2)cc1)N1CC[C@](CC(C)(C)O)(c2ccccc2)OC1=O please
Result: 44
